assay_procedure: kinase inhibitors against Plasmodium liver-stage infection, cell-based, known kinase inhibitor set, luminescence, hepatoma host viability (AID 624392);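 also: infected cells incubated roughly two days before readout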
protocol_conditions: Plasmodium liver stage in hepatoma cells, luciferase luminescence, concentration not given here; measured here: host liver cell viability
I'd appreciate it if you could supply liver cell % of control values for the items below.
One number for each entry, in %.

| compound | unit_abbrev | measured_value |
| --- | --- | --- |
| COc1ccc(N2Cc3cnc(Nc4ccccc4)nc3N(C3CCC(O)C3)C2=O)cc1 (stereo not given) | % | 114 |
| COc1ccc(O)c(C(=O)c2ccc(C(=O)NC3CCCNCC3NC(=O)c3ccncc3)cc2)c1F (stereo not given) | % | 115 |
| CS(=O)(=O)N1CCC(Nc2ncc(C(=O)c3c(F)cccc3F)c(N)n2)CC1 | % | 89.5 |
| O=C(Nc1n[nH]c2cc(-c3ccc(F)cc3)ccc12)C1CC1 | % | 152 |
| CNC(=O)c1cncc(/C=C/c2c(Cl)cccc2Cl)c1 | % | 138 |
| CS(=O)(=O)CCN(CC#N)Cc1ccc(-c2ccc3ncnc(Nc4ccc(OCc5cccc(F)c5)c(Cl)c4)c3c2)o1 | % | 98.1 |
| CS(=O)(=O)CCNCc1cc(-c2cc3c(Nc4ccc(OCc5cccc(F)c5)c(Cl)c4)ncnc3s2)cs1 | % | 91.2 |
| CN1CCC(C(=O)NC2NNC3NNC(c4ccccc4)CC32)CC1 (stereo not given) | % | 89.8 |
| CC(C)c1[nH]nc2c1N=C(c1ccccc1Cl)c1cc([N+](=O)[O-])ccc1N2 | % | 105 |

Proceeding to the next compound to report its liver cell % of control.
Looking up Nc1c(C(=O)c2cccc(OCCN3CCOCC3)c2)cnn1-c1ccc(F)cc1 , I see its liver cell % of control listed as 121

* * *

I'd appreciate it if you could supply viability values for the items below.
assay_procedure: ovarian cancer cell viability with rucaparib, profiling panel, oncology-focused library, rucaparib conditional (AID 1508598)
protocol_conditions: patient-derived ovarian cancer cells, CellTiter-Glo viability, 144 h; at 5 µM; OCI-C5x cells; without rucaparib; stronger effect = lower value
Answers are plain numbers, in %.

| molecule | viability (%) |
| --- | --- |
| CN(CCOc1ccc(CC2SC(=O)NC2=O)cc1)c1ccccn1 (centres undefined) | 133 |

Batch request: viability per item, same order as input.
1. O=c1[nH]cnc2[nH]ncc12
2. O=C1CCC(N2C(=O)c3ccccc3C2=O)C(=O)N1 (centres undefined)
3. S=c1nc[nH]c2nc[nH]c12

Ans:
1. 109
2. 108
3. 107

* * *

I'd appreciate it if you could supply inhibition values for the items below.
assay_procedure: UWB1.289_BRCA1 ovarian cancer growth, cell-based, BGB or cisplatin combinations (AID 1671459)
protocol_conditions: UWB1.289 BRCA1 ovarian carcinoma, drug combinations, cisplatin combination, concentration series, at 5 µM, stronger effect = higher value
One number for each entry, in %.

| compound | measured_value |
| --- | --- |
| O=c1[nH]cc(F)c(=O)[nH]1 | 17 |
| O=C1c2c(O)ccc(O)c2C(=O)c2c(NCCNCCO)ccc(NCCNCCO)c21 | 104 |
| CCN(CC)CCCC(C)Nc1c2ccc(Cl)cc2nc2ccc(OC)cc12 (stereo unspecified) | 117 |

Batch request: inhibition per item, same order as input.
1. CC(=O)OCC(CCn1cnc2cnc(N)nc21)COC(C)=O
2. O=C(O)CCCc1ccccc1
3. CCn1cc(C(=O)O)c(=O)c2cc(F)c(N3CCNCC3)cc21

Ans:
1. 11.9
2. 25.2
3. 12.5
